Compiled from multiple publications: IC50 readings for human IKK-β (Homo sapiens, UniProt O14920).

Guide cases for IC50, answers given:
>>> df
                                   molecule         observed
0  N#Cc1c(C2CCCNC2)cc(-c2c(O)cccc2OCc2ccc(F)c(F)c2)nc1N (stereo not shown)         < 500 nM
1  CCCc1cc(N2CCC(NCC(O)COc3ccc(F)cc3)CC2)nc2sc(C(N)=O)c(N)c12 (stereo not shown)        < 1000 nM
2  N#Cc1c(C2CCCNC2)cc(-c2c(O)cccc2OCc2ccc(Cl)cc2Cl)nc1N (stereo not shown)         < 500 nM
3  CC(C)OC(=O)NCc1c(C2CCCNC2)cc(-c2c(O)cccc2OCC2CC2)nc1N (stereo not shown)         < 500 nM
4  CC(C)C[C@H](NC/C=C/c1ccc(-c2cc(C(N)=O)c(NC(N)=O)s2)c(C(F)(F)F)c1)C(=O)O  1000 to 5000 nM

For human IKK-β (Homo sapiens, UniProt O14920), give the measured IC50 of the entry CCCc1cc(N2CCC(NCC(O)c3ccc(-c4cnccn4)cc3)CC2)nc2sc(C(N)=O)c(N)c12 (stereo not shown)
< 1000 nM

For human IKK-β (Homo sapiens, UniProt O14920), give the measured IC50 of the entry NC(=O)c1sc2nc(N3CCC(N)CC3)cc(C3CC3)c2c1N
< 1000 nM

* * *

Compiled from multiple publications: IC50 readings for UniProt:O14920.

In [3]: df
Out[3]:
                                   molecule  reported_property        observed
0  CC(C)(C)C(=O)COc1cccc(O)c1-c1cc(C2CCCNC2)c(C#N)c(N)n1 (stereo not shown)               IC50        < 500 nM
1  NC(=O)Nc1sc(-c2ccc(/C=C/C[C@@H](NC3CCCCC3)C(=O)O)cc2)cc1C(N)=O               IC50       < 1000 nM
2  CN1CCN(CCC(=O)Nc2cccc(-c3cc(-c4ccccc4O)nc(N)c3C#N)c2)CC1               IC50  500 to 2000 nM
3  Nc1nc(-c2c(O)cccc2OCC2CC2)cc(C2CCCNC2)c1CNC(=S)Nc1ccccc1 (stereo not shown)               IC50        < 500 nM

Consider the molecule Cc1ccc(COc2cccc(O)c2-c2cc(C3CCCNC3)c(C#N)c(N)n2)cc1 (stereo not shown) . State its measured IC50.
< 500 nM

Consider the molecule N#Cc1c(C2CCCNC2)cc(-c2c(O)cccc2OCc2cccnc2)nc1N (stereo not shown) . State its measured IC50.
< 500 nM

Consider the molecule CC(C)COc1cccc(O)c1-c1cc(C2CCNCC2)c(C#N)c(N)n1 . State its measured IC50.
< 500 nM
